Quick list: BChE (Human) inhibitory activity (%) ± SD per entry.
experimental-target: BChE (Human) (Homo sapiens, UniProt P06276)
Construct: purchased Sigma-Aldrich (Steinheim, Germany)
Sequence (P06276 29-602): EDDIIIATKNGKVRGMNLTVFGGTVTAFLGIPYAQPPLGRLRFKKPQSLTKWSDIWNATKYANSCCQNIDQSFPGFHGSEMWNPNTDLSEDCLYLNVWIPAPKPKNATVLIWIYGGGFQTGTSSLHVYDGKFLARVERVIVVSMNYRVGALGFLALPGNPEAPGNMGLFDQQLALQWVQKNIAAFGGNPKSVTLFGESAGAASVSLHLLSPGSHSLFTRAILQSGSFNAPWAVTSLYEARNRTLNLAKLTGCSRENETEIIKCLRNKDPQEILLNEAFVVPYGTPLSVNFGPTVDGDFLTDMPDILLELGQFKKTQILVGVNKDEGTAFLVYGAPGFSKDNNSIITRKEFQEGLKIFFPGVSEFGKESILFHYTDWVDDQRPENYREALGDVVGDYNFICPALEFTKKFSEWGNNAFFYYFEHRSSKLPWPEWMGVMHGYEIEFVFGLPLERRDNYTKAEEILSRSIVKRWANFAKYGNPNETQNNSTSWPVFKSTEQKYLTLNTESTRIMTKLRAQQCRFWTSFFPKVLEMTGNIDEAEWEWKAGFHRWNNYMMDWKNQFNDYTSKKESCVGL
experimental-details: BChE inhibition, Ellman's method
Type: biochemical
measurement-conditions: 10^-3 M
quantity-measured: BChE (Human) inhibitory activity (%) ± SD

>>> result("CCN1CCN(C(=S)SCC(=O)Nc2c3ccccc3nc3ccccc23)CC1")
"50.23±0.88%"
>>> result("O=C(CSC(=S)N1CCN(C2CCCCC2)CC1)Nc1c2ccccc2nc2ccccc12")
"85.71±2.40%"
>>> result("CN1CCN(C(=S)SCC(=O)Nc2c3ccccc3nc3ccccc23)CC1")
"80.29±2.40%"
